Target: integrin β1 (on KYSE410 ESCC cells) (UniProt P05556)
Sequence (P05556 21-798): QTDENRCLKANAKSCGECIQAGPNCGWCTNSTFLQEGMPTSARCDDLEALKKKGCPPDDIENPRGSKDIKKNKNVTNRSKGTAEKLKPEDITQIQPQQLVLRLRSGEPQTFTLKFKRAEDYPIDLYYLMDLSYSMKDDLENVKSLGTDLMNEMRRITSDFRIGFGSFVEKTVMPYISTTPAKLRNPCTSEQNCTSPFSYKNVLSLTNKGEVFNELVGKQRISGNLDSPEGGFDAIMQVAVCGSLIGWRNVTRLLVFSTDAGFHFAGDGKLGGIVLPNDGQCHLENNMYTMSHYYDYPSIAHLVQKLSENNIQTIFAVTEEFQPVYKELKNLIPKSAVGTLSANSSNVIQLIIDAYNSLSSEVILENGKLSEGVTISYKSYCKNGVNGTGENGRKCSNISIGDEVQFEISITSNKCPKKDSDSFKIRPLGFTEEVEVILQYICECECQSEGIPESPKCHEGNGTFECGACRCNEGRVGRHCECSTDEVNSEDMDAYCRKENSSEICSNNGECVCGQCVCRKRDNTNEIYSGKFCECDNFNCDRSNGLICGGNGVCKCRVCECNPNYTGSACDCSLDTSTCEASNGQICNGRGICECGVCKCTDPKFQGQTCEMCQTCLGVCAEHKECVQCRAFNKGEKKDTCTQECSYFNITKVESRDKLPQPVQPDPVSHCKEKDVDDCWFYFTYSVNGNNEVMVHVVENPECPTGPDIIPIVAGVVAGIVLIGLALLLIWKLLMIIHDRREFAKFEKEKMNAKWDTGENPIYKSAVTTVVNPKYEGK
Test: flow cytometry (cell binding)
Settings: 0.01 M PBS, 4.5 g/L glucose, 5 mM MgCl2, 1 mg/mL BSA, 0.1 mg/mL yeast tRNA, 30 min on ice, ~1e5 cells, pH not stated
Provide the recorded Kd for the entries that follow.
Respond with a number, then the unit of measure.

Prompt: Quick check: Kd on integrin β1 (on KYSE410 ESCC cells) (UniProt P05556), item CGCGAATGCTATCGGGGCTAAGTATCAAAATGAGC [A2(35)] ?
Completion: 58.1 nM

Prompt: Quick check: Kd on integrin β1 (on KYSE410 ESCC cells) (UniProt P05556), item CGTCGTCGTCGTCGTCGTTTTCGCGAATGCTATCGGGGCTAAGTATCAAAATGAGC / ACGACGACGACGACGACGTTTCGCGAATGCTATCGGGGCTAAGTATCAAAATGAGC [BAD (bivalent aptamer-DNA carrier)] ?
Completion: 7.7 nM

Data origin: paper PMC11276760
